assay: MTT assay, Caco-2 cells; type: cell-based, human; settings: human, versus normal I407 cells, read-out: S.I. (Selective Index), Caco-2
OBSERVED_PROPERTY: selectivity ratio

COMPOUND: CCCCCCCCC[C@H](CCCCCCCC(=O)O)O[Si](C)(C)C(C)(C)C [Compound 4]
OBSERVED_PROPERTY: selectivity ratio
RESULT: 2.65

----------
Test system: J6
Assay: MTT assay, Jurkat J6 cells
Assay type: cell-based
Details: Homo sapiens, means of four experiments, na = not active, read-out: In vitro cytotoxic activity (IC50), J6
From the text: The human colorectal adenocarcinoma (Caco-2), human colorectal adenocarcinoma (HT29), normal human intestinal (I407), human cervical cancer (HeLa), human breast cancer (MCF7), human bone osteosarcoma (U2OS), and human acute T-cell leukemia (Jurkat J6) cell lines were purchased from American Type Culture Collection (ATCC, Manassas, VA, USA). […]
OBSERVED_PROPERTY: IC50 (nM)

COMPOUND: CCCCCCCCC[C@H](CCCCCCCC(=O)O)O[Si](C)(C)C(C)(C)C [Compound 4]
NUMERIC_READOUT: 214

COMPOUND: CCCCCCCCC[C@H](CCCCCCCC(=O)OC)O[Si](C)(C)C(C)(C)C [Compound 3]
NUMERIC_READOUT: 152

----------
test system: HT29; assay: MTT assay, HT29 cells; format: cell-based, human; conditions: Homo sapiens, HT-29; MTT after 24 h of treatment; means of four experiments; read-out: IC50 nM, HT29 (Table 2)

MOLECULE: CCCCCCCCC[C@H](CCCCCCCC(=O)O)O[Si](C)(C)C(C)(C)C [Compound 4]
SYSTEM_NAME: HT29
UNIT_OF_MEASUREMENT: nM
IC50: 20.9
